Where do these numbers come from? They come from patent US20230159510A1.

Test system: HCT116 MTAP null cells
test: HCT116 proliferation assay, MTAP null cells (CellTiter-Glo, 6 days)
Format: cell-based
experimental-parameters: HCT116-MTAP null, 144 h, read-out: Protif_ HCT116-MTAP null IC50
pIC50: −log10 of the molar value.
measurement-kind: pIC50

INSERT INTO measurements (compound, measurement_kind, measurement) VALUES
  ('Cc1cc2cc(C(=O)N(Cc3ccc(C#N)cn3)[C@@H]3CCC[C@H]3O)ccc2nc1N', 'pIC50', 6.41),
  ('Cc1cc2cc(C(=O)N(Cc3ccc(C(F)(F)F)cn3)C3CCc4sc(Cl)cc43)ccc2nc1N (centres unmarked)', 'pIC50', 6.43),
  ('Cc1cc2cc(C(=O)N(Cc3ccc(C(F)(F)F)cn3)Cc3ccc4cc[nH]c4n3)ccc2nc1N', 'pIC50', 6.56),
  ('Cc1cc2cc(C(=O)N(Cc3ccc(C(F)(F)F)cn3)Cc3ncccn3)c(F)cc2nc1N', 'pIC50', 6.77),
  ('Cc1cc2cc(C(=O)N(Cc3ccc(C(F)F)cn3)[C@H](C)c3ncccn3)ccc2nc1N', 'pIC50', 7.25),
  ('Cc1cc2cc(C(=O)N(Cc3ccc(O)cc3)Cc3ccnc4[nH]ccc34)ccc2nc1N', 'pIC50', 6.62),
  ('Cc1cc2cc(C(=O)N(Cc3ccc(Br)nn3)[C@@H]3CCC[C@H]3O)ccc2nc1N', 'pIC50', 6.66),
  ('Cc1cc2cc(C(=O)N(Cc3ccc(C(F)(F)F)cn3)[C@@H]3CCCC[C@H]3O)ccc2nc1N', 'pIC50', 6.94);

---

Tested on: HCT116 MTAP null cells
test: HCT116 proliferation assay, MTAP null cells (CellTiter-Glo, 6 days)
Format: cell-based
experimental-parameters: HCT116-MTAP null, 144 h, read-out: Protif_ HCT116-MTAP null IC50
Protocol: HCT116 MTAP null and WT cells were seeded in 96-well tissue culture plates in RPMI 1640 media + 10% fetal bovine serum. Plates were incubated overnight at 37° C. and 5% CO2. […] Effects on cell viability were measured with the CellTiter-Glo® Luminescent Cell Viability Assay (Promega) per manufacturer’s recommendation. Assay plates were read on an EnVision™ Multilabel Reader using the Ultra-Sensitive luminescence module.
pIC50: −log10 of the molar value.
measurement-kind: pIC50

INSERT INTO results (compound, inequality_operator, measurement) VALUES
  ('COC[C@@H](C)N(Cc1ccc(OC)nn1)C(=O)c1ccc2nc(N)c(C)cc2c1 [Example 789]', '=', 6.79),
  ('Cc1cc2cc(C(=O)N(Cc3ccc(C#N)cn3)[C@H](C)c3ncccn3)c(F)cc2nc1N [Example 404]', '=', 7.05),
  ('C[C@H](c1ncccn1)N(Cc1ccc(C(F)F)cn1)C(=O)c1cnc2nc(N)c(Br)cc2c1 [Example 407]', '=', 6.54),
  ('Cc1cc2cc(C(=O)N(Cc3ccc(C(F)(F)F)nn3)[C@H](C)c3ncccn3)ccc2nc1N (single isomer, unassigned) [Example 488]', '=', 7.46),
  ('Cc1cc2cc(C(=O)N(Cc3ccc(Br)cn3)[C@H](C)c3ncccc3F)ccc2nc1N [Example 400]', '=', 7.39),
  ('CC[C@H](c1ncccn1)N(Cc1ccc(C#N)cn1)C(=O)c1ccc2nc(N)c(Br)cc2c1 [Example 759]', '=', 6.53),
  ('C[C@H](c1ncccn1)N(Cc1ccc(C(F)F)cn1)C(=O)c1ccc2nc(N)c(Cl)cc2c1 [Example 381]', '=', 6.71),
  ('Cc1cc2cc(C(=O)N(Cc3ncc(Br)cc3C)[C@H](C)c3ncccn3)ccc2nc1N (single isomer, unassigned) [Example 474]', '=', 7.06),
  ('Nc1nc2ccc(C(=O)N(Cc3ccc(C(F)(F)F)cn3)C3CCOC3C3CC3)cc2cc1Br (stereo not drawn) [Example 832]', '=', 6.42),
  ('Cc1cc2cc(C(=O)N(Cc3ccc(C(F)(F)F)cn3)Cc3cc(Cl)cn3C)ccc2nc1N [Example 582]', '=', 6.31),
  ('C[C@H](c1nccs1)N(Cc1ccc(Br)nn1)C(=O)c1ccc2nc(N)c(Br)cc2c1 [Example 435]', '=', 7.18),
  ('Cc1cc2cc(C(=O)N(Cc3ccc(C(F)(F)F)cn3)C(C)CC3CC3)ccc2nc1N (stereo not drawn) [Example 696]', '=', 6.70),
  ('C#CCCCN(Cc1ccc(C(F)(F)F)cn1)C(=O)c1ccc2nc(N)c(C)cc2c1 [Example 692]', '<', 6.00),
  ('Cc1cc2cc(C(=O)N(Cc3ccc(C(F)(F)F)cn3)[C@H](C)c3ccc(F)cn3)ccc2nc1N (single isomer, unassigned) [Example 484]', '=', 7.23),
  ('C[C@H](c1ncn(C)n1)N(Cc1ccc(C(F)F)cn1)C(=O)c1cnc2nc(N)c(Br)cc2c1 (single isomer, unassigned) [Example 535]', '=', 6.26);

---

Parameter: IC50. Scope: all listed entries.
Test system: HCT116 WT cells
test: HCT116 proliferation assay, WT cells (CellTiter-Glo, 6 days)
Assay type: cell-based
experimental-parameters: Homo sapiens, HCT-116, 144 h, read-out: Prolif_HCT116-WT IC50
Protocol: HCT116 MTAP null and WT cells were seeded in 96-well tissue culture plates in RPMI 1640 media + 10% fetal bovine serum. Plates were incubated overnight at 37° C. and 5% CO2. […] Effects on cell viability were measured with the CellTiter-Glo® Luminescent Cell Viability Assay (Promega) per manufacturer’s recommendation. Assay plates were read on an EnVision™ Multilabel Reader using the Ultra-Sensitive luminescence module.
measurement-kind: IC50 (µM)

INSERT INTO measurements (compound, measure_unit, inequality_operator, measurement) VALUES
  ('C[C@H](c1ncccn1)N(Cc1ccc(Cl)cn1)C(=O)c1cnc2nc(N)c(I)cc2c1 [Example 768]', 'µM', '=', 3.96),
  ('Cc1cc2cc(C(=O)N(Cc3ccc(C(F)(F)F)cn3)C(c3ncccn3)C(C)C)ccc2nc1N (stereo not shown) [Example 805]', 'µM', '=', 2),
  ('C[C@H](c1ncccn1)N(Cc1ccc(C(F)(F)F)nn1)C(=O)c1ccc2nc(N)c(Cl)cc2c1 (single isomer, unassigned) [Example 445]', 'µM', '>', 10),
  ('Cc1cc2cc(C(=O)N(Cc3ccc(OC(F)(F)F)nn3)C(C)c3ncccn3)ccc2nc1N (stereo not shown) [Example 791]', 'µM', '=', 1.72),
  ('Cc1cc2cc(C(=O)N(Cc3ccc(C(F)(F)F)cn3)Cc3cocn3)ccc2nc1N [Example 580]', 'µM', '=', 5.6),
  ('CCOc1ccc(CN(C(=O)c2ccc3nc(N)c(C)cc3c2)[C@H](C)c2ncccn2)nc1 [Example 375]', 'µM', '=', 2.13),
  ('Cc1cc2cc(C(=O)N(Cc3cnc(C(F)(F)F)cn3)[C@H](C)c3ccc(F)cn3)ccc2nc1N (single isomer, unassigned) [Example 483]', 'µM', '>', 10),
  ('Cc1cc2cc(C(=O)N(Cc3ccc(C(F)(F)F)cn3)[C@@H]3CCCC[C@H]3O)ccc2nc1N [Example 361]', 'µM', '=', 3.22),
  ('Cc1cc(N)nc2ccc(C(=O)N(Cc3ccc(C(F)(F)F)cn3)Cc3ncn(C)n3)cc12 [Example 710]', 'µM', '=', 1.14),
  ('Cc1cc2cc(C(=O)N(Cc3ccc4[nH]ccc4c3)Cc3ccc(C(F)(F)F)cn3)ccc2nc1N [Example 623]', 'µM', '=', 0.9),
  ('Cc1cc2cc(C(=O)N(Cc3ccc(C(F)(F)F)cn3)[C@@H]3CCOC[C@H]3F)ccc2nc1N (single isomer, unassigned) [Example 781]', 'µM', '=', 3.4),
  ('Cc1cc2cc(C(=O)N(Cc3ccc(Br)cn3)[C@H](C)c3ncccn3)ccc2nc1N [Example 402]', 'µM', '=', 0.526),
  ('Cc1cc2cc(C(=O)N(Cc3ccc(Br)nn3)[C@@H]3CCCn4ncnc43)ccc2nc1N [Example 416]', 'µM', '=', 6.65),
  ('CC[C@H](c1ncccn1)N(Cc1ccc(C(F)F)cn1)C(=O)c1cnc2nc(N)c(Br)cc2c1 (single isomer, unassigned) [Example 500]', 'µM', '=', 4.59),
  ('CC[C@H](c1ncccn1)N(Cc1ccc(C(F)F)cn1)C(=O)c1ccc2nc(N)c(Br)cc2c1 (single isomer, unassigned) [Example 501]', 'µM', '=', 5.92),
  ('CCc1csc(CN(Cc2ccc(C(F)(F)F)cn2)C(=O)c2ccc3nc(N)c(C)cc3c2)n1 [Example 586]', 'µM', '=', 5.55),
  ('Cc1cc2cc(C(=O)N(Cc3ccc(C(F)(F)F)cn3)[C@H](C)c3ncccn3)c(F)cc2nc1N [Example 429]', 'µM', '=', 0.607),
  ('Cc1cnc(CN(Cc2ccc(C(F)(F)F)cn2)C(=O)c2ccc3nc(N)c(C)cc3c2)cn1 [Example 337]', 'µM', '>', 10),
  ('CO[C@@H]1CCCC[C@H]1N(Cc1ccc(C(F)(F)F)cn1)C(=O)c1cnc2nc(N)c(Br)cc2c1 (racemic) [Example 798]', 'µM', '=', 6.96),
  ('C[C@H](c1ncccn1)N(Cc1ccc(C(F)F)cn1)C(=O)c1ccc2nc(N)c(Cl)cc2c1 [Example 381]', 'µM', '=', 8.97),
  ('Cc1cc2cc(C(=O)N(Cc3ccc(C(F)(F)F)cn3)[C@@H]3CCCc4ccncc43)ccc2nc1N [Example 323]', 'µM', '=', 5.01),
  ('Cc1cc2cc(C(=O)N(Cc3ccc(C(F)(F)F)cn3)Cc3ncccc3F)ccc2nc1N [Example 320]', 'µM', '=', 3.48),
  ('Cc1cc2cc(C(=O)N(Cc3ccc(C(F)(F)F)cn3)[C@@H]3CCOC[C@H]3O)ccc2nc1N (mixture of isomers) [Example 803]', 'µM', '>', 10),
  ('Cc1cc2cc(C(=O)N(Cc3ccc(C(F)(F)F)cn3)CC(C)C)c(F)cc2nc1N [Example 314]', 'µM', '=', 5.13),
  ('Cc1cc2cc(C(=O)N(CC(C)C)[C@H](C)c3ccc(C(F)(F)F)cn3)ccc2nc1N (single isomer, unassigned) [Example 472]', 'µM', '>', 10),
  ('Cc1cc(N)nc2ccc(C(=O)N(Cc3ccc(C(F)(F)F)cn3)[C@H](C)c3ncccn3)cc12 [Example 432]', 'µM', '=', 0.11),
  ('Cc1cc2cc(C(=O)N(Cc3ccc(C(F)(F)F)cn3)[C@@H](c3ncccn3)C3CC3)ccc2nc1N (single isomer, unassigned) [Example 452]', 'µM', '=', 0.48),
  ('C[C@H](c1ncccn1)N(Cc1ccc(Cl)cn1)C(=O)c1cnc2nc(N)c(Br)cc2c1 [Example 414]', 'µM', '=', 5.18);
